// reported IC50 per item
- measured-on: human endothelin-A (ETA) receptors (Homo sapiens)
- Construct: made in house; host or cells: Sf9 insect cells (membrane fractions)
- Sequence (P25101 21-427): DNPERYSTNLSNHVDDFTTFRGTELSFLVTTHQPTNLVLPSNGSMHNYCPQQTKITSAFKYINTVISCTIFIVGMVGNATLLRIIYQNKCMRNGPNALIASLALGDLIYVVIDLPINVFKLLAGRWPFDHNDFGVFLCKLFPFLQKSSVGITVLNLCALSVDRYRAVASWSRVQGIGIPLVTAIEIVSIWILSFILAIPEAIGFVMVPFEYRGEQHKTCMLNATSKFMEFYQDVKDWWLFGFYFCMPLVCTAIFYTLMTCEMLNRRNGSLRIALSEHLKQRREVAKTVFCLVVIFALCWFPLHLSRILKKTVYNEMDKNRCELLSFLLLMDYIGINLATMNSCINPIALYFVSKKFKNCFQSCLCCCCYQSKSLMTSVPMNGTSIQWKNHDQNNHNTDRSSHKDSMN
- assay-protocol: Binding Test to ETA receptor expressed in an insect cell Sf9 ([125I]endothelin-1 displacement)
- experimental-parameters: Table 5; values recur in Table 7; read-out: Binding IC50 (µM) ETA

smiles-representation	display-unit	IC50
COCOc1ccc(-c2sc3c(c2CNS(C)(=O)=O)c(=O)n(CC(=O)O)c(=O)n3Cc2ccccc2SC)cc1	µM	0.0076
CCS(=O)(=O)NCc1c(-c2ccc(OCOC)cc2)sc2c1c(=O)n(CC(=O)O)c(=O)n2Cc1ccccc1SC	µM	0.0061

###

Examples of compounds with documented pIC50 follow.
- measured-on: human ETB endothelin receptor (Homo sapiens, UniProt P24530)
- Construct: expressed in transfected cells; host or cells: CHO cells (clone ETB 12)
- Sequence (P24530 27-442): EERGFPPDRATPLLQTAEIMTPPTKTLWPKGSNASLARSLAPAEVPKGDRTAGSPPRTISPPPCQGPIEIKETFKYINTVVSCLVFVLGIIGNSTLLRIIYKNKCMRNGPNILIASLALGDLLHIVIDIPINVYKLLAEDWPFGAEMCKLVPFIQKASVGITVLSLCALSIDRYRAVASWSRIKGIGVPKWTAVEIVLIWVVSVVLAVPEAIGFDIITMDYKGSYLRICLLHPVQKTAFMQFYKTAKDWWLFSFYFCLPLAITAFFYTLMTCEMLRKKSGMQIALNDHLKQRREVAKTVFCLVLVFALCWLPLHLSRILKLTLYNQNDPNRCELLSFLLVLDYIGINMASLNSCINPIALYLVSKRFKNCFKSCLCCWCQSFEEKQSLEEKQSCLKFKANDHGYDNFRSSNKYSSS
- assay-protocol: Binding Test to ETB receptor expressed in CHO cell (ET-1-stimulated [3H]arachidonic acid release)
- Assay type: cell-based
- experimental-parameters: CHO cell expressing human ETB (ETB 12 cells), final concentration of ET-1 6.3x10^-10M, n=2
pIC50: −log10 of the molar value.

compound	measured-on	pIC50
CCS(=O)(=O)NCc1c(-c2ccc(OCOC)cc2)sc2c1c(=O)n(CC(=O)O)c(=O)n2Cc1ccccc1SC [11(16)]	human ETB endothelin receptor (Homo sapiens, UniProt P24530)	6.89
COCOc1ccc(-c2sc3c(c2CNS(C)(=O)=O)c(=O)n(CC(=O)O)c(=O)n3Cc2ccccc2SC)cc1 [Example 5]	human ETB endothelin receptor (Homo sapiens, UniProt P24530)	6.31
